FYI, the data here is from patent US8158656B2.

# Tested on: HCT-8
# Method Notes: Tumor cell proliferation (MTS), HCT-8
# Type: cell-based
# Condition Description: Homo sapiens, HCT-8, 72 hours
Measurement Name: GI50

Worked examples, 2 molecules total:
1) Cc1[nH]c(/C=C2\C(=O)Nc3ccc(F)cc32)c(C)c1C(=O)NCCCCNc1ccc(C(=O)Nc2ccc(F)cc2N)cn1 :: > 60 µM
2) Cc1[nH]c(/C=N/N=C2\C(=O)Nc3ccc(F)cc32)c(C)c1C(=O)NCCNc1ccc(C(=O)Nc2ccccc2N)cn1 :: > 60 µM

QUERY: Query the reported GI50 for HCT-8; item: Cc1[nH]c(/C=N/N=C2\C(=O)Nc3ccc(F)cc32)c(C)c1C(=O)NCCNc1ccc(C(=O)Nc2ccc(F)cc2N)cn1
RESULT: > 60 µM

---

# Assay Target: VEGFR2 (Homo sapiens)
# Sequence (P35968 807-1356): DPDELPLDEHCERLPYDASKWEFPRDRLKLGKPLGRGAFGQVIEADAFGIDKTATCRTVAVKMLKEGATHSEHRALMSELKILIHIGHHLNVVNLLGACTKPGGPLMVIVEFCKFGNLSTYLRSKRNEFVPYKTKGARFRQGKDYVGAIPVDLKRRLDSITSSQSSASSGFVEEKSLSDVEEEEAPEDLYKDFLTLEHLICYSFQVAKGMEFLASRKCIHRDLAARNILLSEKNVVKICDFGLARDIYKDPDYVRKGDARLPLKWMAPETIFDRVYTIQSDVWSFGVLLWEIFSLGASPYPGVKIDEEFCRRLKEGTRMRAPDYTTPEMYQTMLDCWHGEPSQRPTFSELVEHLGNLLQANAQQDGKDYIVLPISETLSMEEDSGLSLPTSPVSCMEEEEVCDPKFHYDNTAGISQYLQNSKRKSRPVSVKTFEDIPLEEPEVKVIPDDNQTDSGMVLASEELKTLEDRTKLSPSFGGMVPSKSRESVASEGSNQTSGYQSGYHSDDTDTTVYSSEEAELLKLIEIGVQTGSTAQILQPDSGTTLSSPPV
# Method Notes: VEGF receptor kinase ELISA bioassay
# Assay type: biochemical
# Condition Description: ELISA kinase assay, 200 μM ATP
Measurement Name: IC50 (nM)

[I] Cc1[nH]c(/C=C2\C(=O)Nc3ccc(F)cc32)c(C)c1C(=O)NCCNc1ccc(C(=O)Nc2ccccc2N)cn1
[II] Cc1[nH]c(/C=C2\C(=O)Nc3ccc(F)cc32)c(C)c1C(=O)NCCCCNc1ccc(C(=O)Nc2ccc(F)cc2N)cn1
QUERY: Of I and II , which one carries the higher reported IC50? Label of pick, please.
RESULT: II
(II: 157 nM, I: 11 nM)

---

# System: Mo7e cells (SCF dependent)
# Method Notes: c-Kit ligand (SCF) dependent cell proliferation
# Assay type: cell-based
# Condition Description: SCF 50 ng/ml, 72 hours, MTS
Measurement Name: GI50 (nM)
Hi! Could you send only the number? It should be in nM, unit omitted.

1) Cc1[nH]c(/C=C2\C(=O)Nc3ccc(F)cc32)c(C)c1C(=O)NCCCCNc1ccc(C(=O)Nc2ccccc2N)cn1 :: 32

QUERY: What value of measured GI50 is listed for Cc1[nH]c(/C=C2\C(=O)Nc3ccc(F)cc32)c(C)c1C(=O)NCCCCNc1ccc(C(=O)Nc2ccc(F)cc2N)cn1 ?
RESULT: 42

QUERY: Requested field: GI50. Item: Cc1[nH]c(/C=C2\C(=O)Nc3ccc(F)cc32)c(C)c1C(=O)NCCNc1ccc(C(=O)Nc2ccccc2N)cn1
RESULT: 126

QUERY: Entry Cc1[nH]c(/C=C2\C(=O)Nc3ccc(F)cc32)c(C)c1C(=O)NCCNc1ccc(C(=O)Nc2ccc(F)cc2N)cn1 has what GI50?
RESULT: 151

---

# Assay Target: HDAC3 (Homo sapiens)
# Construct: endogenous in cells; host or cells: HeLa
# Method Notes: GDF11 reporter assay in HeLa cells
# Type: cell-based
# Condition Description: relative to CS055 at 3 μM
Measurement Name: HDAC3 (GDF11 reporter assay) % Max Resp of CS055 at 3 μM (%)

Worked cases, answers included:
1. Cc1[nH]c(/C=C2\C(=O)Nc3ccc(F)cc32)c(C)c1C(=O)NCCNc1ccc(C(=O)Nc2ccccc2N)cn1 :: 106.2
2. Cc1[nH]c(/C=N/N=C2\C(=O)Nc3ccc(F)cc32)c(C)c1C(=O)NCCCNc1ccc(C(=O)Nc2ccc(F)cc2N)cn1 :: 3.8
3. Cc1[nH]c(/C=C2\C(=O)Nc3ccc(F)cc32)c(C)c1C(=O)NCCNc1ccc(C(=O)Nc2ccc(F)cc2N)cn1 :: 1.8
4. Cc1[nH]c(/C=N/N=C2\C(=O)Nc3ccc(F)cc32)c(C)c1C(=O)NCCNc1ccc(C(=O)Nc2ccc(F)cc2N)cn1 :: 2.0
5. Cc1[nH]c(/C=C2\C(=O)Nc3ccc(F)cc32)c(C)c1C(=O)NCCCNc1ccc(C(=O)Nc2ccccc2N)cn1 :: 75.6
6. Cc1[nH]c(/C=N/N=C2\C(=O)Nc3ccc(F)cc32)c(C)c1C(=O)NCCCCNc1ccc(C(=O)Nc2ccccc2N)cn1 :: 8.3
7. Cc1[nH]c(/C=N/N=C2\C(=O)Nc3ccc(F)cc32)c(C)c1C(=O)NCCCCNc1ccc(C(=O)Nc2ccc(F)cc2N)cn1 :: 4.1
8. O=C(CCCCCCC(=O)Nc1ccccc1)NO [SAHA, suberoylanilide hydroxamic acid, reference compound] :: 317.9

[A] Cc1[nH]c(/C=C2\C(=O)Nc3ccc(F)cc32)c(C)c1C(=O)NCCCNc1ccc(C(=O)Nc2ccc(F)cc2N)cn1
[B] Cc1[nH]c(/C=C2\C(=O)Nc3ccc(F)cc32)c(C)c1C(=O)NCCCCNc1ccc(C(=O)Nc2ccccc2N)cn1
QUERY: Hey, which is lower on measured HDAC3 (GDF11 reporter assay) % Max Resp of CS055 at 3 μM, A or B ? # reply format: chosen label
RESULT: A

---

# Assay Target: VEGFR2 (Homo sapiens)
# Method Notes: VEGF receptor kinase ELISA bioassay
# Format: biochemical
# Condition Description: ELISA kinase assay, 200 μM ATP
Measurement Name: IC50 (nM)

Sample answers from the record:
1) Cc1[nH]c(/C=N/N=C2\C(=O)Nc3ccc(F)cc32)c(C)c1C(=O)NCCNc1ccc(C(=O)Nc2ccc(F)cc2N)cn1 [Example 14] :: 324
2) Cc1[nH]c(/C=C2\C(=O)Nc3ccc(F)cc32)c(C)c1C(=O)NCCNc1ccc(C(=O)Nc2ccc(F)cc2N)cn1 [Example 13] :: 43
3) Cc1[nH]c(/C=C2\C(=O)Nc3ccc(F)cc32)c(C)c1C(=O)NCCCCNc1ccc(C(=O)Nc2ccccc2N)cn1 [Example 9] :: 35
4) Cc1[nH]c(/C=N/N=C2\C(=O)Nc3ccc(F)cc32)c(C)c1C(=O)NCCCNc1ccc(C(=O)Nc2ccccc2N)cn1 [Example 7] :: 634

[A] Cc1[nH]c(/C=N/N=C2\C(=O)Nc3ccc(F)cc32)c(C)c1C(=O)NCCNc1ccc(C(=O)Nc2ccccc2N)cn1 [Example 4]
[B] Cc1[nH]c(/C=C2\C(=O)Nc3ccc(F)cc32)c(C)c1C(=O)NCCCNc1ccc(C(=O)Nc2ccc(F)cc2N)cn1 [Example 16]
QUERY: Given the listed items, does A or B have the lesser reported IC50? Could you answer with the label of the item you picked?
RESULT: A
(A: 12 nM, B: 72 nM)

---

# Test system: HL60
# Method Notes: Tumor cell proliferation (MTS), HL60
# Assay type: cell-based
# Condition Description: Homo sapiens, HL-60, HL60, 72 hours
Measurement Name: GI50 (µM)

1. Cc1[nH]c(/C=C2\C(=O)Nc3ccc(F)cc32)c(C)c1C(=O)NCCCCNc1ccc(C(=O)Nc2ccccc2N)cn1 :: 1.27
2. CCN(CC)CCNC(=O)c1c(C)[nH]c(/C=C2\C(=O)Nc3ccc(F)cc32)c1C [Sutent, reference compound] :: 1.73

---

# Assay Target: VEGFR2 (Homo sapiens)
# Method Notes: VEGF receptor kinase ELISA bioassay
# Type: biochemical
# Condition Description: ELISA kinase assay, 200 μM ATP
Measurement Name: IC50

QUERY: Dear colleague, I am looking for the recorded IC50 of the following molecule: Cc1[nH]c(/C=C2\C(=O)Nc3ccc(F)cc32)c(C)c1C(=O)NCCCNc1ccc(C(=O)Nc2ccccc2N)cn1
RESULT: 45 nM

QUERY: May I ask what IC50 has been recorded for Cc1[nH]c(/C=N/N=C2\C(=O)Nc3ccc(F)cc32)c(C)c1C(=O)NCCCCNc1ccc(C(=O)Nc2ccccc2N)cn1 ?
RESULT: > 1000 nM

QUERY: Can you look up the measured IC50 of Cc1[nH]c(/C=N/N=C2\C(=O)Nc3ccc(F)cc32)c(C)c1C(=O)NCCCNc1ccc(C(=O)Nc2ccc(F)cc2N)cn1 for me?
RESULT: > 1000 nM

---

# Assay Target: HDAC3 (Homo sapiens, UniProt O15379)
# Construct: endogenous in cells; host or cells: HeLa
# Sequence (O15379 whole entry): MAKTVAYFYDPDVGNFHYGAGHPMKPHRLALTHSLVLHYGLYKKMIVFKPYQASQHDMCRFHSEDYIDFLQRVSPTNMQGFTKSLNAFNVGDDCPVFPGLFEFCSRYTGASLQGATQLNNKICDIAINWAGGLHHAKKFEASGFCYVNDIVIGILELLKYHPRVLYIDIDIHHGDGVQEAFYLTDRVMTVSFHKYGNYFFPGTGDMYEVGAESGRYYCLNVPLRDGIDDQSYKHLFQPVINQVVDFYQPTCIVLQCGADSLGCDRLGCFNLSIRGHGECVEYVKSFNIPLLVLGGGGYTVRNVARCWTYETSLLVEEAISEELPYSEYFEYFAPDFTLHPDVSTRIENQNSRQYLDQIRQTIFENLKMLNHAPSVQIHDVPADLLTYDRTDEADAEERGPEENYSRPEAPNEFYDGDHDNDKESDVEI
# Sequence (Q9Y618 whole entry partner): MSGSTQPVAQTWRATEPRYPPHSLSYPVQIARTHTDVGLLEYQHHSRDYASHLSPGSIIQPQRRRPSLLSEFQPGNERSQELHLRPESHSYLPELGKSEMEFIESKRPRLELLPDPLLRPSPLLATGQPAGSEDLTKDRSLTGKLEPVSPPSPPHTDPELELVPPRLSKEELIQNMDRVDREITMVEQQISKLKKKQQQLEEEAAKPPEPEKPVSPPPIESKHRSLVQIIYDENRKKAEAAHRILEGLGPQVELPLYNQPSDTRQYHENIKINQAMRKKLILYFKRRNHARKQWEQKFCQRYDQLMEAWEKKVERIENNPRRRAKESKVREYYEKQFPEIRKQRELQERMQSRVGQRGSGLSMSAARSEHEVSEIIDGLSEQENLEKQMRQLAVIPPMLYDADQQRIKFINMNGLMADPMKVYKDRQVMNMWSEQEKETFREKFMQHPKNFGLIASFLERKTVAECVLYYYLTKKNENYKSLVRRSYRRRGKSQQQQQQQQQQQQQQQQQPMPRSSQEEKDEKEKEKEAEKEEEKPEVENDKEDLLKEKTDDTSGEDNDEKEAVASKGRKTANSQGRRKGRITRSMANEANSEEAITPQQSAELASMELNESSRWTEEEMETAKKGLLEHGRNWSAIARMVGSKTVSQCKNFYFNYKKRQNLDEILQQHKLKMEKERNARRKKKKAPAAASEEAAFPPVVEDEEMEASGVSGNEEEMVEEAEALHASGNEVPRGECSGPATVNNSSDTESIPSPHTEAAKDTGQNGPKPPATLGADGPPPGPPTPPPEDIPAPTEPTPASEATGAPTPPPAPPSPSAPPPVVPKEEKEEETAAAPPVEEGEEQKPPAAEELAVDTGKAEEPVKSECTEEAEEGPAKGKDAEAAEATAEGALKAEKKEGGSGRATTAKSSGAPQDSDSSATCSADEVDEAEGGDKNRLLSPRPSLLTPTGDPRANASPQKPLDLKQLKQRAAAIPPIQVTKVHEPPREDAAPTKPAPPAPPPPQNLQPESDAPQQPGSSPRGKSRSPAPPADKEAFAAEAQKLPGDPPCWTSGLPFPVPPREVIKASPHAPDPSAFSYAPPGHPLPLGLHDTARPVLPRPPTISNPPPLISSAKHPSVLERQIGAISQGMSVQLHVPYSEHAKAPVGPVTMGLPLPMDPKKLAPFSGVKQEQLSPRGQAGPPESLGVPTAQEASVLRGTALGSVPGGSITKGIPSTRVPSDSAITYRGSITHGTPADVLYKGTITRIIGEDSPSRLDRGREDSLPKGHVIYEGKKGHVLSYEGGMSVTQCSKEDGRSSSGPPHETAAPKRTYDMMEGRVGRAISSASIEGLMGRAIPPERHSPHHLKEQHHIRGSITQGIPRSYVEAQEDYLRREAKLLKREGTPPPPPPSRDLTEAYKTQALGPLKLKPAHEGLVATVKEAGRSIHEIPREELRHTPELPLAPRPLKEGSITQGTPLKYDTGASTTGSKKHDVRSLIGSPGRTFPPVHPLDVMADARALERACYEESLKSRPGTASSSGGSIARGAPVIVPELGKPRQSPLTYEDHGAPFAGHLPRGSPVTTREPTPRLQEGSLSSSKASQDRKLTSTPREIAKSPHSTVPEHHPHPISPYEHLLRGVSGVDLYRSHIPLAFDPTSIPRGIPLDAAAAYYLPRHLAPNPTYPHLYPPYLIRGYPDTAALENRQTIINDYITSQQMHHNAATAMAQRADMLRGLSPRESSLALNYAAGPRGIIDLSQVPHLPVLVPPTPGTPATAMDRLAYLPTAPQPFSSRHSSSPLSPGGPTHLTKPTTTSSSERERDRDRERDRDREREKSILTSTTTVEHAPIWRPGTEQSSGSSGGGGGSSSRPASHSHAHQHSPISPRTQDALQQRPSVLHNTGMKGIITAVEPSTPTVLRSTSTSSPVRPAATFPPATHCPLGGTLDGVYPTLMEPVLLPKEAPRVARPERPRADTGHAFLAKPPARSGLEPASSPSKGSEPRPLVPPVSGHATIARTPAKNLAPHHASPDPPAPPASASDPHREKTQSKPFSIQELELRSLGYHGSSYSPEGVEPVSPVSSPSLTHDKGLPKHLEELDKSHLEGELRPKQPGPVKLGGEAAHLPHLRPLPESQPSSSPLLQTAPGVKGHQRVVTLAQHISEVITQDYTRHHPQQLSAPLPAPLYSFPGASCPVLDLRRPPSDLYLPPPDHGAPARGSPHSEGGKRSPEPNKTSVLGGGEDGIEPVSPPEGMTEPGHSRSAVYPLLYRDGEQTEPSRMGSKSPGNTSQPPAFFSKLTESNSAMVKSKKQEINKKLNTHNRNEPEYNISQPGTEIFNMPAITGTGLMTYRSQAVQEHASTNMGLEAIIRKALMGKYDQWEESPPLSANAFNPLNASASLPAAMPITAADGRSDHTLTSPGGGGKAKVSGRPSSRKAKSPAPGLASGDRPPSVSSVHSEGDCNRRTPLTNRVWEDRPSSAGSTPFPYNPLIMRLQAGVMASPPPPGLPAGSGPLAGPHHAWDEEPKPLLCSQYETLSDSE
# Method Notes: GDF11 reporter assay in HeLa cells
# Format: cell-based
# Condition Description: relative to CS055 at 3 μM
Measurement Name: HDAC3 (GDF11 reporter assay) % Max Resp of CS055 at 3 μM (%)

1. Cc1[nH]c(/C=C2\C(=O)Nc3ccc(F)cc32)c(C)c1C(=O)NCCCCNc1ccc(C(=O)Nc2ccc(F)cc2N)cn1 :: 2.0

[P] Cc1[nH]c(/C=N/N=C2\C(=O)Nc3ccc(F)cc32)c(C)c1C(=O)NCCNc1ccc(C(=O)Nc2ccccc2N)cn1
[Q] Cc1[nH]c(/C=N/N=C2\C(=O)Nc3ccc(F)cc32)c(C)c1C(=O)NCCCNc1ccc(C(=O)Nc2ccccc2N)cn1
QUERY: Between the entries labelled P and Q , which has a larger HDAC3 (GDF11 reporter assay) % Max Resp of CS055 at 3 μM value on record? Returns: label corresponding to the selected item.
RESULT: Q
(Q: 6.3%, P: 2.4%)
